So I've got a bunch of molecules here, and I need their growth inhibition values.
# assayComment: NCI Yeast Anticancer Drug Screen. Data for the rad50 strain (AID 155);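 note: 0% = growth of vehicle-only cultures of the same strain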
# conditionsUsed: S. cerevisiae rad50 strain growth inhibition; at 11.0 µM; active compounds read high
This is part of a sample that, as a whole, favours compounds with a hit. Of some 79,000 tested, about 15% had one in any assay. The source made the active and inactive calls. Cut-off read from the data, not from the text of the source: active = growth inhibition above about 70%; inactive = the rest.

Could you tell me which growth inhibition is on file for O=S(=O)(c1cc(Cl)ccc1O)c1cc(Cl)ccc1O ?
98% (active)

Could you tell me which growth inhibition is on file for CCCCCCCCCCCCCCCCNC(=O)/C(=C\c1ccc(Cl)c(Cl)c1)NC(=O)c1ccccc1 ?
-2% (inactive)

Could you tell me which growth inhibition is on file for O=C(CCc1ccccc1)ON1C(=S)C(c2ccccc2)(c2ccccc2)N=C1Sc1ccccc1 ?
31% (inactive)

Could you tell me which growth inhibition is on file for CC(C)c1cccc(O)c(=O)c1 ?
-8% (inactive)

Could you tell me which growth inhibition is on file for O=C(O)c1cccc2cccc(-c3c4ccc(=O)cc-4oc4cc(O)ccc34)c12 ?
82% (active)

Could you tell me which growth inhibition is on file for c1ccc2c(c1)Cn1c-2nc2ccccc21 ?
24% (inactive)

Could you tell me which growth inhibition is on file for CCCCC(CC)C(=O)Oc1ccc(C(=O)c2ccccc2)c(O)c1 (stereo unspecified) ?
15% (inactive)

Could you tell me which growth inhibition is on file for CCOC(=O)C1=C(C)NC(C)=C(C(=O)OCC)C1c1ccccc1Cl ?
29% (inactive)

Could you tell me which growth inhibition is on file for CCC(C)(c1ccc(O)c(C)c1)c1ccc(O)c(C)c1 ?
52% (inactive)

Could you tell me which growth inhibition is on file for CC(=O)N1C(=O)/C(=C\C(=O)c2ccc([N+](=O)[O-])cc2)c2ccccc21 ?
34% (inactive)

Could you tell me which growth inhibition is on file for CN(C)c1ccc(/C=C/c2ccnc3ccccc23)cc1N ?
-13% (inactive)

###

# assayComment: NCI Yeast Anticancer Drug Screen. Data for the wt1 strain (AID 149);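 note: 0% = growth of vehicle-treated wt1 cultures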
# conditionsUsed: S. cerevisiae wt1 strain (SPY 50644) growth inhibition; at 100.0 µM
The panel holds about 79,000 compounds, 15% with a hit somewhere; the sample as a whole holds those more often. The source made the active and inactive calls. Rule as the data show it: active = growth inhibition above about 70%; inactive = the rest.
Respond only with the outcome that fits, drawn from TRUE for active, FALSE for inactive

# lookup: test call for CCCCCCCCCCCCCCCCCCNC(=S)/N=C\C1=C(O)c2ccccc2C1=O
FALSE

# lookup: test call for CCCCCC(=O)c1ccc(O)cc1O
TRUE

# lookup: test call for O=C(O)c1cccc2cccc(-c3c4ccc(=O)cc-4oc4cc(O)ccc34)c12
TRUE

# lookup: test call for CC(=O)C1(O)Cc2c(O)c3c(c(O)c2C(OC2CC(N)C(O)C(C)O2)C1)C(=O)c1ccccc1C3=O (stereo not given)
TRUE

# lookup: test call for O=C(CCc1ccccc1)ON1C(=S)C(c2ccccc2)(c2ccccc2)N=C1Sc1ccccc1
FALSE

###

# assayComment: NCI Yeast Anticancer Drug Screen. Data for the bub3 strain (AID 167)
# conditionsUsed: S. cerevisiae bub3 mutant strain, at 3.7 µM, active compounds read high
The panel holds about 79,000 compounds, 15% with a hit somewhere; the sample as a whole holds those more often.
readoutType: growth inhibition (%)
All answers are understood in %, so give the number only.

Could you tell me which growth inhibition is on file for CNc1ccc(Cc2c[nH]c3ccccc23)cc1 ?
-1

Could you tell me which growth inhibition is on file for [N-]=[N+]=NC(c1ccccc1)(c1ccccc1)c1ccccc1 ?
-17

Could you tell me which growth inhibition is on file for CCN(CC)N=Nc1c(C(N)=O)n[nH]c1C ?
-12

Could you tell me which growth inhibition is on file for Cc1cc(N=C2C=CC(=[N+](C)C)C=C2)c(N)cc1N ?
7

Could you tell me which growth inhibition is on file for CN(C)c1ccc(N=Nc2ccccn2)cc1 ?
15

Could you tell me which growth inhibition is on file for COc1ccc(N=Nc2ccc3oc(=O)c(C(=O)Nc4ccccc4)cc3c2)cc1 ?
3

Could you tell me which growth inhibition is on file for O=S1(=O)c2ccccc2N=C(c2ccccc2Cl)CC1c1ccc(F)cc1 (stereo not drawn) ?
-16

Could you tell me which growth inhibition is on file for CC(C)c1[nH]nc(C(N)=O)c1N=NN(C)C ?
-5

Could you tell me which growth inhibition is on file for NCc1c(O)ccc2ccccc12 ?
-4

Could you tell me which growth inhibition is on file for Clc1c(Cl)c(Cl)c2c(nnn2C2CCCO2)c1Cl (stereo not drawn) ?
-8

Could you tell me which growth inhibition is on file for Nc1nc(N)c2c(n1)CCC(S(=O)(=O)c1ccc3ccccc3c1)C2 (stereo not drawn) ?
-27

Could you tell me which growth inhibition is on file for Nc1nc(N)c2cc(Sc3ccc4ccccc4c3)ccc2n1 ?
-4

Could you tell me which growth inhibition is on file for Oc1ccc(Br)cc1C=NC1CCCCC1 ?
2
